- ASSAY_INFO: self-splicing fitness, log relative to wild type (ln ratio); higher = more splicing; Tetrahymena group I intron in knt gene, E. coli kanamycin selection, DiMSum; sequences stand for … in CUCUCU…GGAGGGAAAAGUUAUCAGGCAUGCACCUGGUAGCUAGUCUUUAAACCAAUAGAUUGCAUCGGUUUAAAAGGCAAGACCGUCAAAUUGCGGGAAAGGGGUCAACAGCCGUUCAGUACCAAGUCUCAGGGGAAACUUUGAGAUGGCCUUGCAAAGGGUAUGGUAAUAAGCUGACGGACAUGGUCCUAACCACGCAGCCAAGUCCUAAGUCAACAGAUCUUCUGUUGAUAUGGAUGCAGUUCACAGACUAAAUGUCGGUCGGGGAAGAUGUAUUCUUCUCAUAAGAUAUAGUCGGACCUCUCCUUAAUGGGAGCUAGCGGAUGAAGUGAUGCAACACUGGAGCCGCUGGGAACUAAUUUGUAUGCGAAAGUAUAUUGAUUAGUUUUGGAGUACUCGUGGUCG;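 further: selection with 25 µg/mL kanamycin versus none on LB agar overnight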
- PARTICULARS: 37 °C
REPORTED_PROPERTY: self-splicing fitness (ln)
Reply: number alone, nothing else.

Reference set (6 entries):
ACCAAGCAAUAUUACGCAUU = -1.26
GCACAGCAAUAUUACGUGCA = -2.04
AGAGAGCAAUAUUACGUUGC = -2.89
UUUGAGCAAUAUUACGCAAU = -1.5
CACGAGCAAUAUUACGUGGA = -2.2
AAUGAGCAAUAUUACGAUGA = -1.77

--- query ---
// query Look up self-splicing fitness (ln): UCAUAGCAAUAUUACGGACA
// result -0.42

====

Form field: self-splicing fitness (ln) (one value per entry).
- ASSAY_INFO: self-splicing fitness, log relative to wild type (ln ratio); higher = more splicing; Tetrahymena group I intron in knt gene, E. coli kanamycin selection, DiMSum; sequences stand for … in CUCUCU…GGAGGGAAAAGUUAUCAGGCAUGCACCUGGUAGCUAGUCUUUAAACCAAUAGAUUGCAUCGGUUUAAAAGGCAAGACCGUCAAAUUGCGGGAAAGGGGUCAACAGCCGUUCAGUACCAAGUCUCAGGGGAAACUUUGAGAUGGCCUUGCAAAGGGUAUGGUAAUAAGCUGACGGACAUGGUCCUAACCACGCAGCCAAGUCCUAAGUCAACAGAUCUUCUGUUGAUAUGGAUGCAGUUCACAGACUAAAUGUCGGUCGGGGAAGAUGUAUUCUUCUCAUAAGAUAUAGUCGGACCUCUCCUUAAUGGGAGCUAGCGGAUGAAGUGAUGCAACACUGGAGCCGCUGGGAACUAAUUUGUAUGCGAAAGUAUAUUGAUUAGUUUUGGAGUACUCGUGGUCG
- PARTICULARS: 37 °C
Reply: number alone, nothing else.

Reference set (5 entries):
GGGGAGCAAUAUUACGGAGG = -1.4
AGGAAGCAAUAUUACGAGUC = -1.61
GGGCAGCAAUAUUACGACAA = -0.573
CCUAAGCAAUAUUACGCGCG = -1.9
UAGUAGCAAUAUUACGGAGU = -2.62

// query Look up self-splicing fitness (ln): CCUCAGCAAUAUUACGAGCC
// result -0.207

// query Next sequence: AGCGAGCAAUAUUACGUCUG
// result -1.8
